Just for reference, patent US11478466B2 is where these values come from.

test system: alkaline phosphatase (ALP); details: primary screen, 10 μM, C2C12, 4 days, Ex 450/Em 580 nm; rank in brackets not taken
metric-name: RFU Score Threshold ≥ 800

In: Reported RFU Score Threshold ≥ 800 for Cc1nc[nH]c1CN1CCOc2c(O)cc(-c3cccc(Cl)c3)cc2C1 : what is it?
Out: 821 (27)

In: Reported RFU Score Threshold ≥ 800 for Cc1c(-c2ccccc2F)[nH]c2ccc(CNS(=O)(=O)N3CCCC3)cc12 : what is it?
Out: 805 (34)

In: Reported RFU Score Threshold ≥ 800 for O[C@@H]1CNCC[C@H]1CNCc1ccccc1-c1ccccc1 : what is it?
Out: 810 (32)

In: Reported RFU Score Threshold ≥ 800 for CN(Cc1cccc2ncccc12)CC1CCOC1 (centres unmarked) : what is it?
Out: 1010 (10)

In: Reported RFU Score Threshold ≥ 800 for CCC(C)(C)C(=O)N1CCC(CO)(CCOc2ccccc2)CC1 : what is it?
Out: 811 (31)

In: Reported RFU Score Threshold ≥ 800 for Cc1ccc(OCCN(C)Cc2ccncc2)c(C)c1 : what is it?
Out: 818 (29)

Turning now to a further record.
In: Reported RFU Score Threshold ≥ 800 for Cc1cc(C(=O)NC2(C#N)CC2)ccc1NC(=O)CC(C)C : what is it?
Out: 1040 (9)

---

test system: alkaline phosphatase (ALP); conditions: primary screen, 10 μM, C2C12, 4 days, Ex 450/Em 580 nm; rank in brackets not taken
metric-name: RFU Score Threshold ≥ 800

In: Reported RFU Score Threshold ≥ 800 for Cc1cc(C)n(CC(C)Nc2nc(-c3ccncc3)nc3c2CNC3)n1 (stereo not shown) : what is it?
Out: Below Threshold

In: Reported RFU Score Threshold ≥ 800 for CN1CCC2(CC1)CN(C(=O)COCC1CCCO1)CCCN2C (stereo not shown) : what is it?
Out: 900 (17)

In: Reported RFU Score Threshold ≥ 800 for Cc1nc(CCN)cc(N2CCCC2c2nonc2C)n1 (stereo not shown) : what is it?
Out: 879 (19)

In: Reported RFU Score Threshold ≥ 800 for c1cc2c(cc1NC1CCCNC1)OCCO2 (stereo not shown) : what is it?
Out: Below Threshold

In: Reported RFU Score Threshold ≥ 800 for COC(=O)c1ccc(NC(=O)c2c3c(nn2C2CCS(=O)(=O)C2)CCC3)cc1 (stereo not shown) : what is it?
Out: 855 (22)

New cases:
In: Reported RFU Score Threshold ≥ 800 for CCCC(C)c1nnc(NC(=O)c2ccccc2-n2cncn2)s1 (stereo not shown) : what is it?
Out: 849 (24)

In: Reported RFU Score Threshold ≥ 800 for O=C(NC1CC1)C1CCCN(C2CCN(c3ccc(C(F)(F)F)cn3)CC2)C1 (stereo not shown) : what is it?
Out: Below Threshold
